These measurements were taken from patent US20180222961A1.

TESTED TARGET: T1, HLA-B*07:02 (human)
T1 construct: also called peptide-receptive MHC molecules
TEST METHOD NOTES: UV-exchange b2m ELISA; exchange-yield grade

{"BINDER": "LPTQTTSSL", "peptide exchange yield": "50 to 75%"}
{"BINDER": "SPRRSPRISF", "peptide exchange yield": "20 to 50%"}
{"BINDER": "FPQSQYPQY", "peptide exchange yield": "50 to 75%"}
{"BINDER": "RPMPNLRSV", "peptide exchange yield": "50 to 75%"}
{"BINDER": "GPRNAQRVL", "peptide exchange yield": "50 to 75%"}
{"BINDER": "FPHSEMTTVM", "peptide exchange yield": "50 to 75%"}
{"BINDER": "LPAGTTGSLVF", "peptide exchange yield": "50 to 75%"}
{"BINDER": "FPFVTGSTEM", "peptide exchange yield": "20 to 50%"}
{"BINDER": "VPYRVVGL", "peptide exchange yield": "20 to 50%"}
{"BINDER": "VPTPVFPTM", "peptide exchange yield": "20 to 50%"}
{"BINDER": "GPFPLVYVL", "peptide exchange yield": "50 to 75%"}
{"BINDER": "VPSEIDAAF", "peptide exchange yield": "20 to 50%"}
{"BINDER": "HPGSSALHY", "peptide exchange yield": "20 to 50%"}
{"BINDER": "IPMAAVKQAL", "peptide exchange yield": "50 to 75%"}
{"BINDER": "SPLVTSHIM", "peptide exchange yield": "50 to 75%"}
{"BINDER": "YPTEHVQF", "peptide exchange yield": "20 to 50%"}
{"BINDER": "SPAETSTNM", "peptide exchange yield": "50 to 75%"}
{"BINDER": "IPRPEVQAL", "peptide exchange yield": "50 to 75%"}
{"BINDER": "APRAGSQVV", "peptide exchange yield": "50 to 75%"}
{"BINDER": "MPNSAIPFSM", "peptide exchange yield": "50 to 75%"}
{"BINDER": "RPAMNYDKL", "peptide exchange yield": "20 to 50%"}
{"BINDER": "LPTSESLVSF", "peptide exchange yield": "20 to 50%"}
{"BINDER": "SPSPVPTTL", "peptide exchange yield": "50 to 75%"}
{"BINDER": "FPHPEMTTSM", "peptide exchange yield": "50 to 75%"}
{"BINDER": "YPGFPQSQY", "peptide exchange yield": "20 to 50%"}
{"BINDER": "RPRALRDLRIL", "peptide exchange yield": "50 to 75%"}
{"BINDER": "KVKSDRSVF", "peptide exchange yield": "10 to 20%"}
{"BINDER": "NPDLRRNVL", "peptide exchange yield": "50 to 75%"}
{"BINDER": "SPSTIKLTM", "peptide exchange yield": "50 to 75%"}
{"BINDER": "SPDPSKHLL", "peptide exchange yield": "20 to 50%"}
{"BINDER": "FPNRLNLEA", "peptide exchange yield": "50 to 75%"}
{"BINDER": "LPEQTPLAF", "peptide exchange yield": "20 to 50%"}
